system-tested: T1, RatNectin4-His (rat, UniProt D3ZET1 31-348)
T1 construct: Immobilized on the SPR chip; not shown: His tag
T1 sequence: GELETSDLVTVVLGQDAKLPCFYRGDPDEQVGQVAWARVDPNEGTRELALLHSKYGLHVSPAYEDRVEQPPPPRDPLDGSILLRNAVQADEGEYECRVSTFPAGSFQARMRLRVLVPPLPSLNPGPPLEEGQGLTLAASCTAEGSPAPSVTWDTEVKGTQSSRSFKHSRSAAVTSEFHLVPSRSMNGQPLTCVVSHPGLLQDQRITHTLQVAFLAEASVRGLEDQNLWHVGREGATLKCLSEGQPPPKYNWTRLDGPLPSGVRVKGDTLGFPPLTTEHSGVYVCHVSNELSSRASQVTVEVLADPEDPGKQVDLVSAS
measurement-description: SPR, RatNectin4-His immobilized, pH 6.0
observable: kon (M⁻¹ s⁻¹)
Dear colleague, please return just the value in M⁻¹ s⁻¹, with no unit written.

• BAP-143-06-24-16 (antibody, V domains shown, Used as a conjugate with a linker payload (CAB ADC)) VH: EVQLVQSGAEVKKPGATVKISCKVSGFTFSSYNMNWIRQSPSRGLEWLGYISSSSSTIYYADSVKGRFTISRDNSKNTLYLQMNSLRAEDTAVYYCARAYYYGDDVWGQGTLVTVSS VL: DIQMTQSPSSVSASVGDRVTITCHASQGISGWLAWYQQKPGKAPKFLIYAASTLQSGVPSRFSGSGSGTDFTLTISSLQPEDFATYYCQQANSFPPTFGGGTKVEIK = 6.1e+06

Query block: Entry under review: BAP-143-00-01 (antibody, V domains shown, Used as a conjugate with a linker payload (CAB ADC)) VH: EVQLVESGGGLVQPGGSLRLSCAASGFTFSSYNMNWVRQAPGKGLEWVSYISSSSSTIYYADSVKGRFTISRDNAKNSLSLQMNSLRDEDTAVYYCARAYYYGMDVWGQGTTVTVSS VL: DIQMTQSPSSVSASVGDRVTITCRASQGISGWEAWYQQKPGKAPKFLIYAASTLQSGVPSRFSGSGSGTDFTLTISSLQPEDFATYYCQQANSFPPTFGGGTKVEIK . Reported kon?
Result block: 1.36e+06

Query block: Any idea what its kon is? The binder is BAP-143-07-03-12 (antibody, V domains shown, Used as a conjugate with a linker payload (CAB ADC)) VH: EVQLVESGGGLVQPGGSLRLSCAASGFTFSSYNMNWVRQAPGKGLEWVSYISSSSSTIYYADSVKGRFTISRDNAKNSLSLQMNSLRDEDTAVYYCARAYYYGMDKWGQGTTVTVSS VL: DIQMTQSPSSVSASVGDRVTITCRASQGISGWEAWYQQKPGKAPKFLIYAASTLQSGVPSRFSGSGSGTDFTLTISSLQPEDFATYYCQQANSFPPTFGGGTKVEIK
Result block: 1.62e+06
